Target of assay: QKF-KAT6B (Homo sapiens)
Construct: purchased SignalChem K315-381BG
Sequence (Q8WYB5 whole entry): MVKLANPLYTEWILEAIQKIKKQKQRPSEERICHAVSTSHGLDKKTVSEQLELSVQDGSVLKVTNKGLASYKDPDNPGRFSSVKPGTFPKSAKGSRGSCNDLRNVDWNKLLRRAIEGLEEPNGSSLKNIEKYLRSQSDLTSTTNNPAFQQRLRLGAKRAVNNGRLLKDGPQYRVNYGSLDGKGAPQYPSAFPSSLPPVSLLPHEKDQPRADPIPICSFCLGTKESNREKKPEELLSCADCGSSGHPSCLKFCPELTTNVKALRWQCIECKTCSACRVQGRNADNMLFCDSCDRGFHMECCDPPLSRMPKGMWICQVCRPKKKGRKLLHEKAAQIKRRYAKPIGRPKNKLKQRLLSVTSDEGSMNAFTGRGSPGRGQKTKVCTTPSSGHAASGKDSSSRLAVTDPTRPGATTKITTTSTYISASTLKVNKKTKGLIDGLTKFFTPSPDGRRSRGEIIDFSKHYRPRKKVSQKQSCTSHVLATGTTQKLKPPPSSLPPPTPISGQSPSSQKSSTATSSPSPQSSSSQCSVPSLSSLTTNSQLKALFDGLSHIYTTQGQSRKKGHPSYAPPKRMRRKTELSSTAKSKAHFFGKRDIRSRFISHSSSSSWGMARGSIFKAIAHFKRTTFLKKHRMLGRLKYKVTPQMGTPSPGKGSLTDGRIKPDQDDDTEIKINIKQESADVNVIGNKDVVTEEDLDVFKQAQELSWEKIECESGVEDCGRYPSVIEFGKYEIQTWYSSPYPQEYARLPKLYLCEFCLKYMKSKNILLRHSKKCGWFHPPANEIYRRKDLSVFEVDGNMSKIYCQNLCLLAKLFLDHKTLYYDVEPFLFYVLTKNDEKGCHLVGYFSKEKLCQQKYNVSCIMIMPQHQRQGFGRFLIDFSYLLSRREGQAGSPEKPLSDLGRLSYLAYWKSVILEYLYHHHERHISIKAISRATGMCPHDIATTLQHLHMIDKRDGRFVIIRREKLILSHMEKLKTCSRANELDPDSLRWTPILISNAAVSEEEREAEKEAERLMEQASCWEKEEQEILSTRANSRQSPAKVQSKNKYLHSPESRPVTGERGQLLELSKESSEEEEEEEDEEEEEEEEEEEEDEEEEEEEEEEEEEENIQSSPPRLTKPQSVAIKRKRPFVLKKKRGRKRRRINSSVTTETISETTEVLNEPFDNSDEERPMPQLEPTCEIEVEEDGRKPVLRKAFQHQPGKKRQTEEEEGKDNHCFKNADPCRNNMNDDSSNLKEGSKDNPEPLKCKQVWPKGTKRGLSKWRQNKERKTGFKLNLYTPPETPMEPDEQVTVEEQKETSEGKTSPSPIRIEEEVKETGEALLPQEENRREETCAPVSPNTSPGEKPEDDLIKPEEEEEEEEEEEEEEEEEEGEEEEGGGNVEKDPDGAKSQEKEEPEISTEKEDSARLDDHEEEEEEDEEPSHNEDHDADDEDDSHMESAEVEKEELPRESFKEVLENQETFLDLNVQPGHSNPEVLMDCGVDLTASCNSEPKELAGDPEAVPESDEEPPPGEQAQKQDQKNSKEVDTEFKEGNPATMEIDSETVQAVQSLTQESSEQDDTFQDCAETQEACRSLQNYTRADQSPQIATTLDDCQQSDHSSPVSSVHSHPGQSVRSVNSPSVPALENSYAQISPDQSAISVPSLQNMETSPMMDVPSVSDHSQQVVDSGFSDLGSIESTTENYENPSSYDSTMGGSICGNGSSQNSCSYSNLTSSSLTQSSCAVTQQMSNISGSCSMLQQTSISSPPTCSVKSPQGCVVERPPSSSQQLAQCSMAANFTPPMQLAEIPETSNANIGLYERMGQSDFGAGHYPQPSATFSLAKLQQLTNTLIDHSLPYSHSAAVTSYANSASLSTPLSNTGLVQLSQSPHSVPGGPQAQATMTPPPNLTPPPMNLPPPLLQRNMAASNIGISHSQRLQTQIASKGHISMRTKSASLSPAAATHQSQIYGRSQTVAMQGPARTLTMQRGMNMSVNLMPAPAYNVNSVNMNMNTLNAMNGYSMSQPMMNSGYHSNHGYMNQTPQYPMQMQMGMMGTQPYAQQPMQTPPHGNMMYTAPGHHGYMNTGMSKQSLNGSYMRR
Protocol details: Revised Acetyltransferase Biochemical Assay, KAT6B
Stated conditions: 8 nM KAT6B, 1 μM AcCoA, 100 nM histone H3.1, 90 min
We begin with a simple list: items and their reported IC50.
Numeric only. Scale: nM

Examples with their reported IC50 follow.
CNC(=O)c1ccc2c(c1)S(=O)(=O)NC(C(=O)NCC(c1ccccc1)c1ncco1)=N2 (stereo not drawn); 155
COCCC(CNC(=O)C1=Nc2ccc(I)cc2S(=O)(=O)N1)c1ccccc1 (stereo not drawn); 134

// below: IC50 requested for another molecule
Incoming: Look up IC50 with QKF-KAT6B (Homo sapiens) for this molecule: O=C(NCC(c1ccccc1)c1nnc(CC(F)(F)F)o1)C1=Nc2ccc(I)cc2S(=O)(=O)N1 (stereo not drawn)
Outgoing: 77
